This collection of values is drawn from patent US20260015337A1.

Reported IC50 values follow for various compounds
- TEST_TARGET: 3CL Protease (Severe acute respiratory syndrome coronavirus 2, UniProt P0DTD1)
- EXPERIMENT: 3CL Protease enzymatic activity assay (BPS Bioscience Assay Kit #78043-1, fluorescence)
- Format: biochemical, SARS-CoV-2
- SETTINGS: Table A; 30 min preincubation, 40 μM substrate, 4 hours at room temperature; read-out: IC50, nM (3CL Protease enzymatic activity)

{"columns": ["COMPOUND", "IC50"],
 "data": [
  ["Cc1ccc2[nH]c(=O)c(C[C@H](C#N)NC(=O)C3C4C(CN3C(=O)[C@H](NS(=O)(=O)C3CC3)C(C)(C)C)C4(C)C)cc2c1 (stereo in doubt)", "50 to 100 nM"],
  ["CC(C)(C)[C@H](NS(C)(=O)=O)C(=O)N1C[C@H]2C([C@H]1C(=O)NC(C#N)Cc1cc3c([nH]c1=O)CCC(F)(F)C3)C2(C)C (stereo in doubt)", "100 to 250 nM"],
  ["CCOC(=O)N[C@@H](C(=O)N1CC2C(C1C(=O)N[C@@H](C#N)Cc1cc3cc(C)ccc3[nH]c1=O)C2(C)C)C(C)(C)C (stereo in doubt)", "50 to 100 nM"],
  ["CC(C)(C)[C@H](NS(C)(=O)=O)C(=O)N1C[C@H]2C([C@H]1C(=O)NC(C#N)Cc1cc3c([nH]c1=O)CCCC3)C2(C)C (stereo in doubt)", "100 to 250 nM"],
  ["Cc1ccc2[nH]c(=O)c(C[C@@H](C#N)NC(=O)[C@@H]3[C@@H]4[C@H](CN3C(=O)[C@@H](NC(=O)C(F)(F)F)C(C)(C)C)C4(C)C)c(C)c2c1", "100 to 250 nM"],
  ["Cc1ccc2[nH]c(=O)c(C[C@@H](C#N)NC(=O)[C@@H]3C4[C@H](CN3C(=O)[C@@H](NS(C)(=O)=O)C(C)(C)C)C4(C)C)cc2c1 (stereo in doubt)", "< 50 nM"],
  ["CC(C)(C)[C@H](NC(=O)C(F)(F)F)C(=O)N1C[C@H]2[C@@H]([C@H]1C(=O)N[C@H](C#N)Cc1cc3cnccc3[nH]c1=O)C2(C)C", "< 50 nM"],
  ["Cc1ccc2[nH]c(=O)c(C[C@H](C#N)NC(=O)C3C4C(CN3C(=O)[C@H](NC(=O)C(C)C)C(C)(C)C)C4(C)C)cc2c1 (stereo in doubt)", "50 to 100 nM"],
  ["Cc1ccc2[nH]c(=O)c(C[C@@H](C#N)NC(=O)C3C[C@H]4OCC[C@H]4N3C(=O)[C@@H](NC(=O)OCc3ccccc3)C(C)(C)C)cc2c1 (some centres unmarked)", "≥ 1000 nM"],
  ["Cc1ccc2c(c1)CC(CC(C#N)NC(=O)[C@@H]1[C@@H]3[C@H](CN1C(=O)[C@@H](NC(=O)C(F)(F)F)C(C)(C)C)C3(C)C)C(=O)N2 (some centres unmarked)", "< 50 nM"],
  ["CC(C)(C)[C@H](NC(=O)C(F)(F)F)C(=O)N1C[C@H]2[C@@H]([C@H]1C(=O)N[C@@H](C#N)Cc1nc3ccccc3[nH]c1=O)C2(C)C", "< 50 nM"]
]}
